# test: Human HepG2 cell viability assay in 384 well format
# Assay type: toxicity, cell-based
# Parameters: dose 125 nL, time 70.5 hour; concentration not given beside the values
# measurement setup: HepG2 cells, read-out: Inhibition
property measured: cytotoxicity at 70.5 h

Use the examples below as a reference point.
CCOCCCn1c(NC(=O)c2cnn(C)c2)nc2ccccc21; -13.3%
CC(=O)N1CCCC(c2ccccn2)C1 (stereo not drawn); 8.66%
COc1coc(CN2CCCC(CCc3ccc(F)c(F)c3)C2)cc1=O (stereo not drawn); 15.5%
COc1cccc(CCC2CCCN(C(=O)c3n[nH]c4c3CCC4)C2)c1 (stereo not drawn); 0.453%
CN(C)c1cccc(C2CCCN2S(=O)(=O)c2cn(C)cn2)n1 (stereo not drawn); -8.98%
Cc1ncc(CNC(=O)N(C)Cc2ccc([S+](C)[O-])cc2)s1 (stereo not drawn); -4.15%
O=C(c1ccn(-c2ccccc2Cl)n1)N1CCCSCC1; -3.62%
c1ncn(Cc2ccc(CNCc3ccc4c(c3)OCCO4)cc2)n1; -13.3%
Fc1ccc(N2CCC3(CC2)CC(OCc2cccnc2)CO3)cc1 (stereo not drawn); 0.624%
N#Cc1cccc(-c2ncnn2CC2(O)CCCCC2)c1; -3.16%

// Input: `COc1ccc(S(=O)(=O)NC(=O)COC2CCCC2)cc1` . Output its cytotoxicity at 70.5 h only.
-5.57%

Identify measured cytotoxicity at 70.5 h corresponding to Cc1noc(C(C)Nc2ccc3oc(=O)[nH]c3c2)n1 (stereo not drawn)
-0.467%

Fill in reported cytotoxicity at 70.5 h for this entry: N#Cc1cccc(N2CCCC3(C2)CN(c2nncs2)CCO3)c1 (stereo not drawn)
14%

Return cytotoxicity at 70.5 h for the following compound: `COCc1cc(C[C@@H]2CC[C@H](O)[C@@H](CN(C)C)O2)no1`
-0.737%

Find the measured cytotoxicity at 70.5 h of O=C(C[S+]([O-])Cc1cccc(Cl)c1)NC1CCCC1 (stereo not drawn) and report it.
-3.67%

Given `O=C1C(CS(=O)(=O)Nc2ccc(Br)cc2)=NC(=O)n2cccc21` , respond with its cytotoxicity at 70.5 h.
2.35%

// Input: `COc1cc(C)nc(N2CCN(C(=O)c3ccoc3C)CC2)n1` . Output its cytotoxicity at 70.5 h only.
-6.48%

Give the reported cytotoxicity at 70.5 h for this compound. Fc1cccc(CN2CCOC3(COCCN(CC4CC4)C3)C2)c1 (stereo not drawn)
-8.93%

Identify the reported cytotoxicity at 70.5 h for the following entry. `Cc1cc(CN2CC[C@@H]3O[C@@H](c4nnc(C)o4)C[C@H]3C2)no1`
-3.3%

Item `Cc1nnc(N2CCN(C(=O)NC3CC3)CC2)c(C(N)=O)c1C` : provide cytotoxicity at 70.5 h
-15.7%

Read off the recorded cytotoxicity at 70.5 h for Cc1cnn(C2CN(CC(O)Cn3cccn3)C2)c1 (stereo not drawn)
7.89%

Give reported cytotoxicity at 70.5 h value for `O=C1COc2ccccc2N1CCCn1cnnn1`
-9.54%

Cited source: ChEMBL document CHEMBL3507680
